SYSTEM_TESTED: T1, hArtemin-MMH (human)
T1 construct: also called hARTN.mmh; hARTN (A108-G220).mmh
T1 chain: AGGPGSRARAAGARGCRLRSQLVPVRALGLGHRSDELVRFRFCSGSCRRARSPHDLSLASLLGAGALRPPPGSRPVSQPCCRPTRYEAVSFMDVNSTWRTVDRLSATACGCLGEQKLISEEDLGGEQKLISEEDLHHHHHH
PROTOCOL_DETAILS: BLI (Octet HTX), mAb captured on AHC tips, artemin at 15 nM, 25 C
RECORDED_METRIC: Artemin Binding Response (nm)
Give your result in nm as a bare value.

Example entries and their recorded answers appear below.
H4H33335P (antibody, human IgG4 S228P, kappa, V domains shown, Fully human antibody; also called Artemin mAb; anti-ARTN antibody) VH: EVQLVESGGGLVQPGGSLRLSCAASGFTFSSYDMHWVRQATGKGLEWVSTIDTAGDTYYPGSVKGRFTISRENAKNSLYLQMNSLRAGDTAVYYCARDGELELQGYFDLWGRGTLVTVSS VL: DIQMTQSPSSLSASVGDRVTITCRASQIISIYLNWYQQKPGKAPKLLIYAASSLQSGVPSRFSGSGSGTDFTLTISSLQPEDFATYYCQQSYTTPLTFGGGTKVEIKR; 0.11
H4H33331P (antibody, human IgG4 S228P, kappa, V domains shown, Fully human antibody (human variable and constant domains) from a VELOCIMMUNE mouse; also called Artemin mAb; anti-ARTN antibody) VH: EVQLVESGGDLVQPGGSLKLSCAASGFTFSGSAMHWVRQASGKGLEWVGRIRNKVHRYATEYGASVKGRFTISRDDSKNTAYLQMNSLKIEDTAVYYCVVVVPGSIEAFDIWGQGTMVTVSS VL: DIQMTQSPSSLSASVGDRVTITCRASQSISTYLNWYQQKPGKAPNLLIYAASTLESGVPSRFSGSGSGTDFTLTISSLQPEDFEIYYCQQSYNIPWTFGQGTKVEIKR; 0.11

Item H4H33349P (antibody, human IgG4 S228P, kappa, V domains shown, Fully human antibody; also called Artemin mAb; anti-ARTN antibody) VH: QVQLVESGGGVVQPGRSLRLSCEASGFTFSDYDLHWVRQAPGKGLEWVAFISNDGSNEYYPKSVKGRFSISRDNSKNTLYLQMNSLRAEDTAVYHCTKERDYYYDSSGSLDYWGQGTLVTVSS VL: DIQMTQSPSSLSASVGDRVTITCRASQTINNYLNWYQQKPGKAPKLLIYTTSGLQSGVPSRFSGRGSGTDFTLAISSLQPEDFATYYCQQSYHSPFTFGPGTKVDIKR : provide Artemin Binding Response (nm)
0.11
